Target: human CSNK1D (Homo sapiens, UniProt P48730)
Sequence (P48730 whole entry): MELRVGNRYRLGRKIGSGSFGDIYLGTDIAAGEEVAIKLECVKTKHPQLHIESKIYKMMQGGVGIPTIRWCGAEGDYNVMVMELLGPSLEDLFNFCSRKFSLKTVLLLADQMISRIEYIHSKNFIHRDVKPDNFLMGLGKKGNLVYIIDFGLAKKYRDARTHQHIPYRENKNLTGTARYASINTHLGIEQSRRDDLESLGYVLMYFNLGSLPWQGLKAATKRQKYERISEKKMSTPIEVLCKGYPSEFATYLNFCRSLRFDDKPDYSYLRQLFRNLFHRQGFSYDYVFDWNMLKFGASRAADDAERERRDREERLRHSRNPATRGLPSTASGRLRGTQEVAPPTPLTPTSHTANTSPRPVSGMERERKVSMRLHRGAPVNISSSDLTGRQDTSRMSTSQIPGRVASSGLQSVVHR
Experiment: Whole Cell nBRET CSNK1D Binding Assay
Settings: living CHO cells stably expressing human CSNK1D tagged with nanoluciferase; NanoBret tracer 130 nM; 2 hours at 37 C
experimental.endpoint: pIC50
Note: pIC50 values are expressed as the negative base-10 logarithm of concentration in M.

See these solved cases before continuing.
Hi! What's the reported pIC50 for "Cc1cc(-c2c(-c3ccc(F)cc3)nn3c2OCC2(COC2)C3)c2cn[nH]c2n1" on human CSNK1D (Homo sapiens, UniProt P48730)?
8.22

Hi! What's the reported pIC50 for [2H]C([2H])([2H])C1(C([2H])([2H])[2H])CC(O)c2c(-c3ccnc4[nH]ncc34)c(-c3ccc(F)cn3)nn2C1 (stereo not shown) on human CSNK1D (Homo sapiens, UniProt P48730)?
6.75

Hi! What's the reported pIC50 for "Cc1n[nH]c2nccc(-c3c(-c4ccc(F)cn4)nn4c3COC(C)(C)C4)c12" on human CSNK1D (Homo sapiens, UniProt P48730)?
6.84

Next:
Hi! What's the reported pIC50 for FCC1Cn2nc(-c3ccc(F)cc3)c(-c3ccnc4[nH]ncc34)c2CO1 (single isomer, unassigned) [Example 105] on human CSNK1D (Homo sapiens, UniProt P48730)?
7.34
